- condition: in 2-butanone, 292.15 K
readout_kind: solubility (mole fraction)
Answer with a bare number; do not write a unit.

Asked: Report solubility (mole fraction) for "O=c1c2ccccc2sc2ccccc12" please.
Given back: 0.00309

====

- condition: in methanol, 316.15 K
readout_kind: solubility (mole fraction)
Lab note: record the figure alone, no unit after it.

Asked: Which solubility (mole fraction) value is on record for "O=c1c2ccccc2sc2ccccc12" ?
Given back: 0.000469

====

- condition: in n-propanol, 335.95 K
readout_kind: solubility (mole fraction)
Form field (numeric): enter value without unit.

Asked: # get_value(readout='solubility (mole fraction)', item= "O=c1c2ccccc2sc2ccccc12" )
Given back: 0.00317

====

- condition: in 1,4-dioxane, 302.05 K
readout_kind: solubility (mole fraction)
Respond numerically, and do not add a unit to the figure.

Asked: What measured solubility (mole fraction) goes with "O=c1c2ccccc2sc2ccccc12" ?
Given back: 0.0109

====

- condition: in n-propanol, 297.05 K
readout_kind: solubility (mole fraction)
// no unit, no text: just the number

Asked: Name the recorded solubility (mole fraction) for "O=c1c2ccccc2sc2ccccc12" .
Given back: 0.00061

====

- condition: in dichloromethane, 297.05 K
readout_kind: solubility (mole fraction)
Reply with the value as a number alone.

Asked: Item "O=c1c2ccccc2sc2ccccc12" has what recorded solubility (mole fraction)?
Given back: 0.00849

====

- condition: in ethanol, 319.35 K
readout_kind: solubility (mole fraction)
Write the value as a bare number.

Asked: Using the record for "O=c1c2ccccc2sc2ccccc12" , report its solubility (mole fraction).
Given back: 0.00153

====

- condition: in dichloromethane, 301.95 K
readout_kind: solubility (mole fraction)
Give the figure only, with no unit attached.

Asked: What does the record list as solubility (mole fraction) for "O=c1c2ccccc2sc2ccccc12" ?
Given back: 0.00981

====

- condition: in ethyl acetate, 322.55 K
readout_kind: solubility (mole fraction)
Give only the figure.

Asked: Data request, read-out solubility (mole fraction), for "O=c1c2ccccc2sc2ccccc12"
Given back: 0.00655

====

- condition: in 2-butanone, 311.25 K
readout_kind: solubility (mole fraction)
Give the figure only, with no unit attached.

Asked: Item under review: "O=c1c2ccccc2sc2ccccc12" . Reported solubility (mole fraction)?
Given back: 0.00604

====

- condition: in isopropanol, 331.55 K
readout_kind: solubility (mole fraction)
The response must contain the number and no unit.

Asked: Reported solubility (mole fraction) for "O=c1c2ccccc2sc2ccccc12" : what is it?
Given back: 0.00371

====

- condition: in ethyl acetate, 302.05 K
readout_kind: solubility (mole fraction)
Lab note: jot the number down without any unit.

Asked: Which solubility (mole fraction) reading was recorded for the compound "O=c1c2ccccc2sc2ccccc12" ?
Given back: 0.00371

====

- condition: in toluene, 316.85 K
readout_kind: solubility (mole fraction)
Enter a number only.

Asked: Quick check: solubility (mole fraction) of "O=c1c2ccccc2sc2ccccc12" ?
Given back: 0.0096

====

- condition: in n-propanol, 306.65 K
readout_kind: solubility (mole fraction)
Please respond with just the number, no unit label.

Asked: Report solubility (mole fraction) for "O=c1c2ccccc2sc2ccccc12" please.
Given back: 0.000892

====

- condition: in isopropanol, 319.35 K
readout_kind: solubility (mole fraction)
Give only the figure.

Asked: Please look up its solubility (mole fraction): "O=c1c2ccccc2sc2ccccc12"
Given back: 0.00198

====

- condition: in acetone, 305.05 K
readout_kind: solubility (mole fraction)

Asked: Which solubility (mole fraction) is listed for "O=c1c2ccccc2sc2ccccc12" ?
Given back: 0.00293

====

- condition: in ethyl acetate, 311.15 K
readout_kind: solubility (mole fraction)
Reply: number alone, nothing else.

Asked: Quick one: solubility (mole fraction) of "O=c1c2ccccc2sc2ccccc12" ?
Given back: 0.00485

====

- condition: in methanol, 331.55 K
readout_kind: solubility (mole fraction)
Format: numeric value only, no unit, no commentary.

Asked: Please report the recorded solubility (mole fraction) for "O=c1c2ccccc2sc2ccccc12" .
Given back: 0.000921

====

- condition: in isopropanol, 302.05 K
readout_kind: solubility (mole fraction)
Number only, please.

Asked: Can you look up the measured solubility (mole fraction) of "O=c1c2ccccc2sc2ccccc12" for me?
Given back: 0.000733

====

- condition: in toluene, 297.05 K
readout_kind: solubility (mole fraction)
Would you mind answering with just the numeric figure?

Asked: Given "O=c1c2ccccc2sc2ccccc12" , state its recorded solubility (mole fraction).
Given back: 0.00456

====

- condition: in acetonitrile, 331.55 K
readout_kind: solubility (mole fraction)
Lab note: write the figure by itself, no unit.

Asked: For the compound "O=c1c2ccccc2sc2ccccc12" , what solubility (mole fraction) is on record?
Given back: 0.00336

====

- condition: in dichloromethane, 311.25 K
readout_kind: solubility (mole fraction)
Reply briefly: the number, and no unit.

Asked: // returns reported solubility (mole fraction) for input "O=c1c2ccccc2sc2ccccc12"
Given back: 0.0134

====

- condition: in THF, 316.15 K
readout_kind: solubility (mole fraction)
Please respond with just the number, no unit label.

Asked: Reported solubility (mole fraction), molecule "O=c1c2ccccc2sc2ccccc12" : ____
Given back: 0.0167

====

- condition: in acetone, 297.05 K
readout_kind: solubility (mole fraction)
// no unit, no text: just the number

Asked: Returns the measured solubility (mole fraction) for the input molecule. Input: "O=c1c2ccccc2sc2ccccc12"
Given back: 0.00225

====

- condition: in n-propanol, 301.95 K
readout_kind: solubility (mole fraction)
The answer should be a number; do not append a unit.

Asked: Entry under review: "O=c1c2ccccc2sc2ccccc12" . Reported solubility (mole fraction)?
Given back: 0.000782

====

- condition: in ethanol, 307.95 K
readout_kind: solubility (mole fraction)
Please give the numeric answer without any surrounding text.

Asked: For the compound shown here, "O=c1c2ccccc2sc2ccccc12" , give the reported solubility (mole fraction).
Given back: 0.000657

====

- condition: in n-propanol, 321.25 K
readout_kind: solubility (mole fraction)
Number, no unit, nothing else.

Asked: Look up solubility (mole fraction): "O=c1c2ccccc2sc2ccccc12"
Given back: 0.00175

====

- condition: in acetone, 313.85 K
readout_kind: solubility (mole fraction)
Answer with a number only.

Asked: solubility (mole fraction) lookup needed for "O=c1c2ccccc2sc2ccccc12" , thanks.
Given back: 0.00389

====

- condition: in methanol, 301.95 K
readout_kind: solubility (mole fraction)

Asked: If you can, please state the reported solubility (mole fraction) value of "O=c1c2ccccc2sc2ccccc12" .
Given back: 0.000284

====

- condition: in acetonitrile, 335.95 K
readout_kind: solubility (mole fraction)
Please respond with just the number, no unit label.

Asked: solubility (mole fraction) for "O=c1c2ccccc2sc2ccccc12" ?
Given back: 0.00411

====

- condition: in acetonitrile, 307.95 K
readout_kind: solubility (mole fraction)
Enter a number only.

Asked: Tell me the measured solubility (mole fraction) of "O=c1c2ccccc2sc2ccccc12" , please.
Given back: 0.0011

====

- condition: in ethyl acetate, 292.15 K
readout_kind: solubility (mole fraction)

Asked: Need solubility (mole fraction), item "O=c1c2ccccc2sc2ccccc12"
Given back: 0.00273

====

- condition: in acetonitrile, 316.85 K
readout_kind: solubility (mole fraction)
Respond numerically, and do not add a unit to the figure.

Asked: What value of solubility (mole fraction) has been recorded for this entry: "O=c1c2ccccc2sc2ccccc12"
Given back: 0.0017

====

- condition: in 2-butanone, 331.55 K
readout_kind: solubility (mole fraction)
Just the number.

Asked: What solubility (mole fraction) value was documented for this compound, "O=c1c2ccccc2sc2ccccc12" ?
Given back: 0.0111

====

- condition: in acetonitrile, 302.05 K
readout_kind: solubility (mole fraction)
Could you keep your reply to the number by itself?

Asked: Request the reported solubility (mole fraction) associated with "O=c1c2ccccc2sc2ccccc12"
Given back: 0.000806

====

- condition: in dichloromethane, 292.15 K
readout_kind: solubility (mole fraction)
Reply with just the number.

Asked: // solubility (mole fraction) lookup, key: "O=c1c2ccccc2sc2ccccc12"
Given back: 0.00692

====

- condition: in toluene, 313.85 K
readout_kind: solubility (mole fraction)

Asked: For the molecule shown here, "O=c1c2ccccc2sc2ccccc12" , give the reported solubility (mole fraction).
Given back: 0.00858

====

- condition: in ethanol, 331.55 K
readout_kind: solubility (mole fraction)
Quick one: just the number, no unit, thanks!

Asked: # get_value(readout='solubility (mole fraction)', item= "O=c1c2ccccc2sc2ccccc12" )
Given back: 0.00342

====

- condition: in acetonitrile, 297.05 K
readout_kind: solubility (mole fraction)
Write the value as a bare number.

Asked: What solubility (mole fraction) value was documented for this molecule, "O=c1c2ccccc2sc2ccccc12" ?
Given back: 0.000614

====

- condition: in ethanol, 297.05 K
readout_kind: solubility (mole fraction)
# answer = number (no unit)

Asked: May I ask what solubility (mole fraction) has been recorded for "O=c1c2ccccc2sc2ccccc12" ?
Given back: 0.000289
